Quick reference: GI50 of the listed items.
- Test system: TK-10
- protocol: NCI tumour cell line growth inhibition, 48 h
Calls of active or inactive are those of the source. No stated cut-off is given here; in the data, active = GI50 up to about 1.1 µM and inactive = higher.

| molecule | testedTarget | GI50 |
| --- | --- | --- |
| COc1ccc2nc(NC(=O)C(=O)C(C(=O)c3ccccc3-c3ccccc3)C3OC(=O)c4ccccc43)sc2c1 (centres undefined) | TK-10 | 25.2 µM (inactive) |
| C=CS(=O)(=O)c1c2cc(OC)ccc2nc2ccc(OC)cc12 | TK-10 | 7.62 µM (inactive) |
| Cc1ccc(Nc2ccc(Nc3ccc(C)cc3S(=O)(=O)O)c3c2C(=O)c2ccccc2C3=O)c(S(=O)(=O)O)c1 | TK-10 | > 100 µM (inactive) |
| CC(=O)OCC(C)C1=C(OC(C)=O)C(=O)C2(C)C/C=C(/C)CC/C=C(\C)CCC(OC(C)=O)C(C)CCC12 (centres undefined) | TK-10 | 19.6 µM (inactive) |

* * *

- Test system: KM12
- protocol: NCI tumour cell line growth inhibition, 48 h
The source made the active and inactive calls. Rule as the data show it: active = GI50 up to about 1.1 µM and inactive = higher.
Labels: true (1) = active, false (0) = inactive

| compound | class |
| --- | --- |
| COC(=O)C(Cc1ccc(Oc2cc(CC(NC(=O)c3ccccc3)C(=O)OC)ccc2OC)cc1)NC(=O)c1ccccc1 (stereo unspecified) | false (0) |
| CC(=O)c1sc2c(c1O)c(=O)n(-c1ccccc1)c(=S)n2-c1ccccc1 | false (0) |
| CO[C@H]1C[C@@H]2CC[C@@H](C)[C@@](O)(O2)C(=O)C(=O)N2CCCC[C@H]2C(=O)O[C@H]([C@H](C)C[C@@H]2CC[C@@H](O)[C@H](OC)C2)CC(=O)[C@H](C)C=C(C)[C@@H](O)[C@@H](OC)C(=O)[C@H](C)C[C@H](C)/C=C/C=C/C=C1C | false (0) |
| CO[C@@H]1/C=C\C=C(/C)C(=O)NC2=CC(=O)C(NCCN(C)C)=C(C[C@@H](C)C[C@@H](OC)[C@@H](O)[C@H](C)/C=C(\C)[C@H]1OC(N)=O)C2=O | true (1) |
| CCOC(=O)c1cnn2c1ncc1c(=O)n(NC(N)=O)ccc12 | false (0) |
| C=CCN(CCNS(=O)(=O)c1ccc(C)cc1)S(=O)(=O)c1ccc(C)cc1 | false (0) |
| O=c1cc(N2CCOCC2)oc2c(-c3ccccc3)cccc12 | false (0) |
| CCOC(=O)C1=C(C)N(NC(N)=O)C2(N)N(NC(N)=O)C(C)=C(C(=O)OCC)C12C(=O)OCC (stereo unspecified) | false (0) |
| Cc1nc(-c2cccnc2)sc1C(=O)CC(=O)C(=O)Nc1cccc(NC(=O)C(=O)CC(=O)c2sc(-c3cccnc3)nc2C)n1 | false (0) |
| COc1c(C)cc2c(C(C)C)c(O)c(O)c(C=O)c2c1O | false (0) |
| CC1(C)CC(=O)C(CC2C(=O)c3ccccc3C2=O)C(=O)C1 | false (0) |
| O=[N+]([O-])c1ccc(S(=O)(=O)n2c3ccc(Br)cc3c3nc4ccccc4nc32)cc1 | false (0) |
| CCC12CCCN3CCc4c(n(c5ccccc45)C(O)(C(=O)OC)C1)C32 (stereo unspecified) | false (0) |
| CCN1CC2=C(NC(=S)NC2c2ccc(Cl)cc2)/C(=C/c2ccc(Cl)cc2)C1 (stereo unspecified) | false (0) |
| C=C1CC[C@@]2(C)[C@@H]([C@@H]1C)[C@H]1CC[C@@H]3[C@@]4(C)CC[C@H](O)C(C)(C)[C@@H]4CC[C@@]3(C)[C@]1(C)C[C@@H]2O | false (0) |
| NNC(=O)c1nnn(CCc2ccccc2)c1C(=O)NN | false (0) |

* * *

- Test system: Hs-578T
- protocol: NCI tumour cell line growth inhibition, 48 h
The source made the active and inactive calls. Cut-off read from the data, not from the text of the source: active = GI50 up to about 1.1 µM and inactive = higher.
readoutKind: GI50

| compound | valueMeasured |
| --- | --- |
| Cc1cc(O)c2c(c1)C(=O)C(c1c(C)cc3c(c1O)C(=O)C1OC1C3=O)=CC2=O (stereo unspecified) | 4.16 µM (inactive) |
| C[n+]1c(Cl)cn2c3nc4ccccc4nc3c([O-])c(C#N)c21 | > 100 µM (inactive) |
| CSc1nncc2[nH]cnc12 | > 100 µM (inactive) |
| COc1cc2c(NCCCCCO)ncnc2c(OC)c1OC | > 100 µM (inactive) |
| Fc1ccc(C(=C2CCN(CCc3ccc4[nH]c(=S)[nH]c4c3)CC2)c2ccc(F)cc2)cc1 | 10.9 µM (inactive) |
| Cn1ccnc1S/C(=C\C=C(C#N)C#N)c1ccc(Cl)cc1 | 4.38 µM (inactive) |

* * *

- System: NCI-H460
- protocol: NCI tumour cell line growth inhibition, 48 h
Activity calls are given as the source filed them. Cut-off read from the data, not from the text of the source: active = GI50 up to about 1.1 µM and inactive = higher.

| molecule | GI50 |
| --- | --- |
| COC(=O)c1ccccc1CC(Cc1ccc2c(c1)CCC2)C(=O)OC (centres undefined) | > 100 µM (inactive) |
| c1ccc2[nH]c(-c3nc4ccccc4o3)nc2c1 | > 100 µM (inactive) |
| C=CCNC1=C(C(=O)OCC)C(=O)CO1 | > 100 µM (inactive) |
| O=[N+]([O-])c1ccc2ncccc2c1CCc1c([N+](=O)[O-])ccc2ncccc12 | > 100 µM (inactive) |
| c1ccc2nn(C3CCCO3)nc2c1 (centres undefined) | > 100 µM (inactive) |
| Fc1ccc(C(OCCN2CCC3CCC(C2)N3Cc2cc3ccccc3[nH]2)c2ccc(F)cc2)cc1 (centres undefined) | 1.78 µM (inactive) |
| C=C1CC2(CC(c3ccccc3OC)OC(c3ccccc3OC)C2)OC1=O (centres undefined) | 5.75 µM (inactive) |
| COc1ccc(C(O)c2ccc3c(c2)OCO3)cc1 (centres undefined) | > 100 µM (inactive) |
| O=C(Cc1ccc(Cl)c(Cl)c1)N(CCc1ccc(Cl)c(Cl)c1)CCN1CCCC1 | 1.85 µM (inactive) |

* * *

The entries below are paired with their reported GI50.
- Tested on: SNB-75
- protocol: NCI tumour cell line growth inhibition, 48 h
Activity calls are given as the source filed them. Cut-off read from the data, not from the text of the source: active = GI50 up to about 1.1 µM and inactive = higher.

| compound | GI50 |
| --- | --- |
| CCOC(=O)/C(C#N)=C/c1[nH]c(C(=O)OCc2ccccc2)c(C)c1C | > 100 µM (inactive) |
| O=C1c2cccc3cccc(c23)C(=O)N1CCCNCCCCNCCCNCCCN1C(=O)c2cccc3cccc(c23)C1=O | 0.319 µM (active) |
| CCCn1cc2c(O)nc(SC)nc2n1 | 41.6 µM (inactive) |
| C=CCc1cc(OC)c2c(c1)C(OC)CC(c1ccc(OC)c(OC)c1)O2 (stereo not given) | 54.8 µM (inactive) |
| COc1cc(/C=C2\[C@H]3c4c(c(OC)c(C)c(OC)c4OC)C[C@@H](C(=O)N2Cc2ccccc2)N3C(=O)OCC(C)C)c(OC)c(C)c1OC | > 83.2 µM (inactive) |
| Cc1ccc2c(c1)OC1Nc3ccccc3C1=C2O (stereo not given) | 23.2 µM (inactive) |
| COC(=O)[C@H](CC(C)C)NC(=O)[C@H](Cc1ccccc1)N1CC2C=CC1C2 (stereo not given in full) | > 100 µM (inactive) |
| Nc1c(O)c(C(=O)O)cc2ccccc12 | 24.3 µM (inactive) |
| CSc1ncnc2c1ncn2CCC(=O)O | > 100 µM (inactive) |
| C=CCOC1=C(OCC=C)C(C2COC(C)(C)O2)OC1=O (stereo not given) | > 100 µM (inactive) |
| Clc1ccc(Cl)c(/N=N\c2cc3c4c(c2)CCN4CCC3)c1 | > 10 µM (inactive) |
| C=C1[C@@H]2CCC3[C@]4(C)C(CC[C@@]5(C)C(=O)O[C@H](O)[C@@H]45)[C@H](O)[C@]3(C2)[C@H]1OC1OC(CO)C(O)C(O)C1O (stereo not given in full) | > 50 µM (inactive) |
| CC(C)c1ccc(/C(C(=O)O)=C(\O)C(=O)O)cc1 | > 100 µM (inactive) |
| N#Cc1c(-c2ccc(Cl)cc2)c(C#N)c(=O)n(NS(=O)(=O)c2ccccc2)c1S | 28.7 µM (inactive) |
| C=CCNC(=S)N1CC(C)C(=O)Nc2cc(Cl)ccc21 (stereo not given) | > 100 µM (inactive) |
| CC(=O)OCCCCn1cc(Cn2ccc(=O)n(Cc3cn(CCCCOC(C)=O)nn3)c2=O)nn1 | > 100 µM (inactive) |
| CC(C)COC(=O)N1N=NC2C3OC(CC3=O)C21 (stereo not given) | > 100 µM (inactive) |
| COc1c(C(=O)/C(=N/Nc2ccc(C(=O)O)cc2)C(C)=O)c(O)cc2occc12 | 50.7 µM (inactive) |
| O=c1/c(=C/c2ccccc2F)sc2nc3ccccc3n12 | 57.4 µM (inactive) |
| O=C1C2=C(C3=NCCc4c[nH]c1c43)c1c(Br)cc(Br)cc1CCN2 | 8.93 µM (inactive) |
| O=c1cc(N2CCOCC2)oc2c(-c3ccccc3)cccc12 [LY-294002] | 1.11 µM (active) |
| CC(=O)Nc1ccccc1-c1cnc2ccccc2n1 | > 100 µM (inactive) |
| CCCCCCCCCC/C=C/CC(=O)SCCNC(=O)CCNC(=O)[C@@H](O)C(C)(C)COP(=O)(O)OP(=O)(O)OCC1OC(n2cnc3c(N)ncnc32)C(O)C1OP(=O)(O)O (stereo not given in full) | > 10 µM (inactive) |
| O=C(NCCO)c1ccc(Cl)cc1 | > 100 µM (inactive) |
| C/C=C(\C)c1cc(=O)c2c(C)cc3c(c2o1)C(OC)(OC(C)=O)c1c(O)c(C2CC(C)(N(C)C)C(OC(C)=O)C(C)O2)cc(C2CC(N(C)C)C(OC(C)=O)C(C)O2)c1C3=O (stereo not given) | 1.69 µM (inactive) |
| CCc1cc(Cc2ccc(C)c(NC(=O)C(=O)C3C(=O)NC(=O)NC3=O)c2CC)cc(C)c1NC(=O)C(=O)C1C(=O)NC(=O)NC1=O | 24.6 µM (inactive) |
| Nc1ncnc2c1N=C(c1ccccc1)CC(c1ccccc1)N2 (stereo not given) | 23.6 µM (inactive) |
| CC(=O)Nc1cc2nc3n(c2cc1C)CCC3OC(C)=O (stereo not given) | > 100 µM (inactive) |
| CCN1CC2=C(NC(=S)NC2c2ccc(Cl)cc2)/C(=C/c2ccc(Cl)cc2)C1 (stereo not given) | 23.1 µM (inactive) |
| CCOC(=O)Nc1ccc(C)c(NC(=O)OCC)c1 | > 100 µM (inactive) |
| CC(=O)C1C(=O)C(=O)N(c2ccccc2)C1=O (stereo not given) | > 100 µM (inactive) |
| COc1ccc(/C=C2\C(=O)N(C(=O)c3ccc(NC(C)=O)cc3)N=C2C)cc1OC | > 100 µM (inactive) |
| Cc1cnc(NCCCN(C)C)c2c1[nH]c1ccc3cc(O)ccc3c12 | 0.555 µM (active) |
| O=C(CCC(=O)c1ccsc1)c1ccsc1 | > 100 µM (inactive) |
| COC(=O)C1=C(C(=O)OC)SC2(S1)C(C(=O)OC)=C(C(=O)OC)Sc1c2ssc1=O | 4.01 µM (inactive) |
